Examples of compounds with documented pIC50 follow.
Molecular target: NEK9 (Homo sapiens, UniProt Q8TD19)
Sequence (Q8TD19 1-979): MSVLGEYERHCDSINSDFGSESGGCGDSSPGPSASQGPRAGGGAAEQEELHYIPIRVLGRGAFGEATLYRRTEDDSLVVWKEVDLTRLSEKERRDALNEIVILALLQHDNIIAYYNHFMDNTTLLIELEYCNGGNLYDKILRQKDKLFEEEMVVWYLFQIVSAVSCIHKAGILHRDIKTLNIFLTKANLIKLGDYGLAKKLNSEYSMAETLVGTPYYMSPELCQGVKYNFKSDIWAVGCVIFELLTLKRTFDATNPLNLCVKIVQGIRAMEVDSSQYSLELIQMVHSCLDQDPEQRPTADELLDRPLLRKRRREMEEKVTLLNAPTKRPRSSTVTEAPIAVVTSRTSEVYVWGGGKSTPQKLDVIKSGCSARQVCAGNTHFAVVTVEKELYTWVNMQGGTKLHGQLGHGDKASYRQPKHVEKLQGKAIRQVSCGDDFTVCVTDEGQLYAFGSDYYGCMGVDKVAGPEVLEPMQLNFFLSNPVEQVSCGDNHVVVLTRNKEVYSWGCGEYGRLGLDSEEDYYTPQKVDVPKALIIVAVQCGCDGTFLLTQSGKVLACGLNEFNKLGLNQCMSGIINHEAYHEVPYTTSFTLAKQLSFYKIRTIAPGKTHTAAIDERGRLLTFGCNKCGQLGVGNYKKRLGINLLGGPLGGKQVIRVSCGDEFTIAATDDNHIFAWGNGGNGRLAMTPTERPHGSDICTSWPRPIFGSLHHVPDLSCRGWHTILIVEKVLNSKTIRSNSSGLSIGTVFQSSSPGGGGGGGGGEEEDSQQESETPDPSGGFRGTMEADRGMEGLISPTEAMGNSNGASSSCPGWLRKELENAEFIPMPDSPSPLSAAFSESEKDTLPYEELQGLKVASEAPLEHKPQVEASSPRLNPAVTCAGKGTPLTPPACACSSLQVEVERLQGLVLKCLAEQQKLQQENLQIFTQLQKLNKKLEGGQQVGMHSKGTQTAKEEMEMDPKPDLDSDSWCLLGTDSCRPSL
pIC50: −log10 of the molar value.

compound | pIC50
COc1cc(C(=O)N2CCN(C)CC2)ccc1Nc1ncc2c(n1)n1c(cc3ccccc31)c(=O)n2C | 5.30 to 6.00
CN1CCN(c2ccc(Nc3ncc4c(n3)n3c(cc5ccccc53)c(=O)n4C)c(C(F)(F)F)c2)CC1 | 5.30 to 6.00
CC(C)Oc1cc(N2CCC(O)CC2)ccc1Nc1ncc2c(n1)n1c(cc3ccccc31)c(=O)n2C | ≤ 5.30
COc1cc(N2CCOCC2)ccc1Nc1ncc2c(n1)N1c3ccccc3CC1C(=O)N2C (stereo not shown) | 6.00 to 6.60
CCN1CCN(c2ccc(Nc3ncc4c(n3)n3c(cc5ccccc53)c(=O)n4C)c(OC)c2)CC1 | 6.60 to 7.30
CCOc1cc(N2CCC(O)CC2)ccc1Nc1ncc2c(n1)n1c(cc3ccccc31)c(=O)n2C | 6.00 to 6.60
COc1cc(N2CCC(C(N)=O)CC2)ccc1Nc1ncc2c(n1)n1c(cc3ccccc31)c(=O)n2C | 6.60 to 7.30
